Every entry's value here was drawn from patent US10519133B2.

Target: UniProt:P11362
pIC50: −log10 of the molar value.
# reported pIC50; entries follow

For orientation, consider the following solved cases.
[
  {
    "compound": "CC(Oc1ccc2[nH]nc(/C=C/c3ccc(CN4CCCCC4)cc3)c2c1)c1c(Cl)cncc1Cl (stereo not shown)",
    "pIC50": "≥ 8.00"
  },
  {
    "compound": "CC(Oc1ccc2[nH]nc(/C=C/c3ncc(CN4CCOCC4)cn3)c2c1)c1c(Cl)cncc1Cl (stereo not shown)",
    "pIC50": "6.00 to 7.30"
  },
  {
    "compound": "CC(Oc1ccc2[nH]nc(/C(F)=C/c3ccc(CN4CCOCC4)nc3)c2c1)c1c(Cl)cncc1Cl (racemic)",
    "pIC50": "6.00 to 7.30"
  }
]

Now look at this entry.
GET /values?readout=pIC50&item= CC(Oc1ccc2[nH]nc(/C=C(\F)c3ccc(CNC4CCOCC4)nc3)c2c1)c1c(F)cncc1F (stereo not shown)
≥ 8.00

* * *

Biological target: UniProt P11362
property: IC50

If you can, please state the reported IC50 value of `C[C@@H](Oc1ccc2[nH]nc(/C=C(\F)c3ccc(CN4CCNCC4)nc3)c2c1)c1c(Cl)cncc1Cl` .
≤ 10 nM

Item under review: `C[C@@H](Oc1ccc2[nH]nc(/C(F)=C/c3ccc(CN4CCOCC4)nc3)c2c1)c1c(Cl)cncc1Cl` . Reported IC50?
50 to 1000 nM

Look at this molecule and give its reported IC50. Cc1cc(/C=C/c2n[nH]c3ccc(OC(C)c4c(Cl)cncc4Cl)cc23)ccc1CN1CCOCC1 (stereo not shown)
50 to 1000 nM

Recorded IC50 of CC(Oc1ccc2[nH]nc(/C=C/c3cncc(CN4CCOCC4)c3)c2c1)c1c(Cl)cncc1Cl (stereo not shown) , please.
≤ 10 nM

* * *

Test: Pharmacokinetics after intravenous and intragastric administration (Experimental Example 4)
Assay type: in vivo
Conditions: mouse, plasma, po; single intragastric administration 10 mg/kg, female Balb/c nude mice; read-out: AUC0-last
property: AUC(0-t) (µM·h)

1. C[C@@H](Oc1ccc2[nH]nc(/C=C/c3ccc(CNC4CCOCC4)nc3)c2c1)c1c(Cl)cncc1Cl [WX_015, reference compound]
2. C[C@@H](Oc1ccc2[nH]nc(/C=C(\F)c3ccc(CNC4CCOCC4)nc3)c2c1)c1c(Cl)cncc1Cl
Select the item with the higher value of AUC(0-t) from the options 1 and 2 listed. Record your answer as the label of the chosen record.
2

* * *

pIC50: −log10 of the molar value.
Measurement record for FGFR1 (Homo sapiens); quantity recorded: pIC50.

[
  {
    "molecule": "CC(Oc1ccc2[nH]nc(/C=C/c3ccc(CN4CCN(C)CC4)cc3)c2c1)c1c(Cl)cncc1Cl (stereo not drawn)",
    "pIC50": "7.30 to 8.00"
  },
  {
    "molecule": "CC(Oc1ccc2[nH]nc(/C=C/c3ccc(CN4CCOCC4)nn3)c2c1)c1c(Cl)cncc1Cl (stereo not drawn)",
    "pIC50": "≥ 8.00"
  },
  {
    "molecule": "C[C@@H](Oc1ccc2[nH]nc(/C=C/c3cccc(CN4CCC(CO)CC4)c3)c2c1)c1c(Cl)cncc1Cl",
    "pIC50": "≥ 8.00"
  },
  {
    "molecule": "CC(Oc1ccc2[nH]nc(/C=C/c3ccc(CNCCN4CCOCC4)cc3)c2c1)c1c(Cl)cncc1Cl (stereo not drawn)",
    "pIC50": "≥ 8.00"
  },
  {
    "molecule": "CC(Oc1ccc2[nH]nc(/C=C/c3ccc(CN4CCOCC4)cc3C#N)c2c1)c1c(Cl)cncc1Cl (stereo not drawn)",
    "pIC50": "6.00 to 7.30"
  }
]

Form entry - test system: FGFR1 (Homo sapiens); read-out: pIC50; molecule: `C[C@@H](Oc1ccc2[nH]nc(/C=C(\F)c3ccc(OC4CCNCC4)nc3)c2c1)c1c(Cl)cncc1Cl`
Sequence (P11362 22-822): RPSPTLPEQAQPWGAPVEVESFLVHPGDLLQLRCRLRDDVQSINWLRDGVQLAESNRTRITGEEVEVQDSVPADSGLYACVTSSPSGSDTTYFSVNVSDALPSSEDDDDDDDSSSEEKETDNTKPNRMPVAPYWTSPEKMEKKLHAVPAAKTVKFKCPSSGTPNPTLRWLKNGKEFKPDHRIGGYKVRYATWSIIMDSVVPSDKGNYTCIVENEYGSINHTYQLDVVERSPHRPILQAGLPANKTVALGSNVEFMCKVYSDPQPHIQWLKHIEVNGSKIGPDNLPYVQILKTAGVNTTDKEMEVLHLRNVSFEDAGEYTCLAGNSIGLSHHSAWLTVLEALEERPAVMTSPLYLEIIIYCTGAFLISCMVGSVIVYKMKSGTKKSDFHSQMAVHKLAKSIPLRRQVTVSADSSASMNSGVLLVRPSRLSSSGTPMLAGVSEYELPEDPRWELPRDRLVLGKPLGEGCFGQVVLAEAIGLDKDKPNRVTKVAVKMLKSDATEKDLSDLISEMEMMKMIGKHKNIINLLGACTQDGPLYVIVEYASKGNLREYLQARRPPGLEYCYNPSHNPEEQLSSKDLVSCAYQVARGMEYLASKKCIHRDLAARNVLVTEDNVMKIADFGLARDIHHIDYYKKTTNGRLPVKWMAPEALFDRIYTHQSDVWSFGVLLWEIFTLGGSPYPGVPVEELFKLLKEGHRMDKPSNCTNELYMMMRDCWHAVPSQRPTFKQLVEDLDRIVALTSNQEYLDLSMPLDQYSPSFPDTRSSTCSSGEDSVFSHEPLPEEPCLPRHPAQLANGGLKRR
≥ 8.00

Which measured pIC50 belongs to C[C@@H](Oc1ccc2[nH]nc(/C=C(\F)c3ccc(CN4CCC(O)C4)nc3)c2c1)c1c(Cl)cncc1Cl (stereo partly drawn) , tested on FGFR1 (Homo sapiens)?
≥ 8.00

Identify the measured pIC50 of CC(Oc1ccc2[nH]nc(/C=C/c3ccc(CN4CCN(c5ccccc5)CC4)cc3)c2c1)c1c(Cl)cncc1Cl (stereo not drawn) for FGFR1 (Homo sapiens).
6.00 to 7.30

* * *

Target or system FGFR1 (Homo sapiens): recorded pIC50 listed per item.
pIC50: −log10 of the molar value.

Use the examples below as a reference point.
[
  {
    "compound": "C[C@H](Oc1ccc2[nH]nc(/C=C(\\F)c3ccc(CN4CCC(O)C4)nc3)c2c1)c1c(Cl)cncc1Cl (stereo partly shown)",
    "property": "pIC50",
    "measured": "≥ 8.00"
  },
  {
    "compound": "CC(Oc1ccc2[nH]nc(/C(F)=C/c3ccc(CNC4CCOCC4)nc3)c2c1)c1c(Cl)cncc1Cl (stereo not shown)",
    "property": "pIC50",
    "measured": "7.30 to 8.00"
  },
  {
    "compound": "C[C@@H](Oc1ccc2[nH]nc(/C(F)=C\\c3ccc(CN4CCOCC4)nc3)c2c1)c1c(Cl)cncc1Cl",
    "property": "pIC50",
    "measured": "6.00 to 7.30"
  }
]

Proceeding to the next compound to report its pIC50.
Value lookup for pIC50; key = CC(Oc1ccc2[nH]nc(/C=C/c3ccc(CN4CCOCC4)c4ccccc34)c2c1)c1c(Cl)cncc1Cl (stereo not shown)
6.00 to 7.30
